Recorded pKi for molecules tested on Carbonic anhydrase 9 (Homo sapiens, UniProt Q16790), drawn from a number of studies.
To interpret pKi, take it as minus log10 of a concentration measured in moles per litre.

Example entries and their recorded answers appear below.
molecule_smiles=NS(=O)(=O)c1ccc(CN2C(=O)c3ccccc3C2=O)cc1 target_system="Carbonic anhydrase 9 (Homo sapiens, UniProt Q16790)" reported_metric=pKi recorded_measurement=8.39
molecule_smiles=NCCNCCNCCN target_system="Carbonic anhydrase 9 (Homo sapiens, UniProt Q16790)" reported_metric=pKi recorded_measurement=4.41

Entry COC(=O)c1ccc(-c2ccc(S(N)(=O)=O)cc2)cc1 , pKi reported as 8.03

Entry O=c1cc(-c2ccc([N+](=O)[O-])cc2)c2ccc(O)cc2o1 , pKi reported as 7.69

Entry N#Cc1cn(-c2nc3ccc(S(N)(=O)=O)cc3s2)nc1-c1ccccc1 , pKi reported as 7.09

Entry NS(=O)(=O)Oc1ccc(NC(=O)NCCc2cccc3ccccc23)cc1 , pKi reported as 7.82

Entry O=C1c2ccccc2S(=O)(=O)N1Cc1ccccc1C(F)(F)F , pKi reported as 6.21
